target: Transcription initiation factor TFIID subunit 1-like (Homo sapiens); test: Inhibition of human TAF1L bromodomain 2 expressed in bacterial expression system
Sequence (Q8IZX4 whole entry): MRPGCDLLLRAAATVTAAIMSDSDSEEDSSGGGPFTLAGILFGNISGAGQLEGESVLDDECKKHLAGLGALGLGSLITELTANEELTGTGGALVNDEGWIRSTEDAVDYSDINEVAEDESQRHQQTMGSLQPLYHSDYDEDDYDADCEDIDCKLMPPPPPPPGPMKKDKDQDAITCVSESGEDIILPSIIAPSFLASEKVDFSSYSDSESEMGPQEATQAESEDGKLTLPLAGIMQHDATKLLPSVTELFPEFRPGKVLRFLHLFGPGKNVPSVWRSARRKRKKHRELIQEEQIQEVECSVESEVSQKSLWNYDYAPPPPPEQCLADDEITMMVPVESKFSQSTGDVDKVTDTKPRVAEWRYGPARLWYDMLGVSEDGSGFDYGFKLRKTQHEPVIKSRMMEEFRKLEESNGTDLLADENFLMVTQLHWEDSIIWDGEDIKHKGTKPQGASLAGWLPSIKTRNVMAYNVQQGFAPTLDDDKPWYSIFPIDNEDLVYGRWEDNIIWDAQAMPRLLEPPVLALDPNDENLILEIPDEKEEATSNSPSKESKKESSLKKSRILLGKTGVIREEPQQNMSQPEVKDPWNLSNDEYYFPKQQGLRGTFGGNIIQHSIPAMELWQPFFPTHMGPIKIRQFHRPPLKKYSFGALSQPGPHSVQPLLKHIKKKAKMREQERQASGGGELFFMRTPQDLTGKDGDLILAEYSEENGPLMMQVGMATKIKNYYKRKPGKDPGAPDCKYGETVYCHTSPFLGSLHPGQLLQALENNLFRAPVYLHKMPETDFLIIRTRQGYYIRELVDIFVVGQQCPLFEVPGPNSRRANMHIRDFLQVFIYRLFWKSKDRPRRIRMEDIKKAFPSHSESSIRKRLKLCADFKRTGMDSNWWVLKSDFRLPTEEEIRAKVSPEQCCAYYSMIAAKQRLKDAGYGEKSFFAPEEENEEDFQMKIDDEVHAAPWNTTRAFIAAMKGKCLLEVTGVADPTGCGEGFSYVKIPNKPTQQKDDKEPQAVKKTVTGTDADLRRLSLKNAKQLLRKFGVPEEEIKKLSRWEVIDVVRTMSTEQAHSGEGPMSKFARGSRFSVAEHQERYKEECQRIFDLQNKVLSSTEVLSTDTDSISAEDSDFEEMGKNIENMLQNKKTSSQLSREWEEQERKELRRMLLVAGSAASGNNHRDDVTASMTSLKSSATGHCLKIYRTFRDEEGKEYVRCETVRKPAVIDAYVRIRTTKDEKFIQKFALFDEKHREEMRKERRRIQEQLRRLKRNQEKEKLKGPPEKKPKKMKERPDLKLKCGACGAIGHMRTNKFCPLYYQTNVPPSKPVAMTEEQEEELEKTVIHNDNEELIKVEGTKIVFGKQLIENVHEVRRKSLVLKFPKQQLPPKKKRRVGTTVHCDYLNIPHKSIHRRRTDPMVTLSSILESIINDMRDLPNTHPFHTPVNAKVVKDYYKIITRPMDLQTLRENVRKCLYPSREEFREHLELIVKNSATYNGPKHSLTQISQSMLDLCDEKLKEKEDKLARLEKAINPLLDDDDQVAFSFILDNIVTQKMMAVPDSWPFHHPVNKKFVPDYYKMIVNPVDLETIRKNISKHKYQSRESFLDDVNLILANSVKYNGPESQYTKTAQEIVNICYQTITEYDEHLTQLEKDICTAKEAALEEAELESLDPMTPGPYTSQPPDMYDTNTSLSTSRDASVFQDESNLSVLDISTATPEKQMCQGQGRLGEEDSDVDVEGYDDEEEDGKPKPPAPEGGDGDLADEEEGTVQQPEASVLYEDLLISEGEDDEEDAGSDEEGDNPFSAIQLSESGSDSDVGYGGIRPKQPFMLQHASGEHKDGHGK
Parameter: pKi
Lab note — pKi values are minus log10 of concentrations in M.

Consider the compound COc1nnc2ccc(N3CCC(c4ccc(OCCN5CCN(C)C(=O)[C@H]5C)cc4)CC3)nn12 and give its measured pKi.
5.60

---

test: Intrinsic clearance in human hepatocytes assessed per million cells; format: ADME, cell-based, Hepatocyte; conditions: read-out: CLH
Parameter: hepatocyte CLint (µL/min/1e6 cells)
Express your answer in µL/min/1e6 cells, writing the number without its unit.

Answered examples (5):
CN1CCN(CCOc2ccc(C3CCN(c4ccc5nnc(C(F)(F)F)n5n4)CC3)cc2)C(=O)C1 | 26
COc1nnc2ccc(N3CCC(c4ccc(OCCN5[C@H](C)CN(C)C(=O)[C@H]5C)cc4)CC3)nn12 | 80
Cc1nnc2ccc(N3CCC(c4ccc(OCCN5CCN(C)C(=O)[C@H]5C)cc4)CC3)nn12 | 7.2
C[C@@H]1C(=O)N(C)CCN1CCOc1ccc(C2CCN(c3ccc4nnc(Cl)n4n3)CC2)cc1 | 24
CSc1nnc2ccc(N3CCC(c4ccc(OCCN5CCN(C)C(=O)[C@H]5C)cc4)CC3)nn12 | 21

Consider the molecule COc1nnc2ccc(N3CCC(c4ccc(OCCCCN5CCN(C)C(=O)[C@H]5C)cc4)CC3)nn12 and give its measured hepatocyte CLint.
12

Now the molecule COc1nnc2ccc(N3CCC(c4ccc(OCCN5C[C@@H](C)N(C(C)=O)[C@@H](C)C5)cc4)CC3)nn12
48

Now the molecule CN1CCN(CCOc2ccc(C3CCN(c4ccc5nnc(C(F)(F)F)n5n4)CC3)cc2)CC1=O
18

Now the molecule C[C@@H]1C(=O)N(C)CCN1CCOc1ccc(C2CCN(c3ccc4nncn4n3)CC2)cc1
180

Now the molecule C[C@@H]1C(=O)N(C)CCN1CCOc1ccc(C2CCN(c3ccc4nnc(C(F)(F)F)n4n3)CC2)cc1
70

Now the molecule COc1nnc2ccc(N3CCC(c4ccc(N5CCC(N6CCN(C)C(=O)[C@H]6C)CC5)cc4)CC3)nn12
2.7

Now the molecule COc1nnc2ccc(N3CCC(c4ccc(OCCCN5CCN(C)C(=O)[C@H]5C)cc4)CC3)nn12
5.1

Now the molecule COc1nnc2ccc(N3CCC(c4ccc(OCCN5[C@H](C)CN(C(C)=O)C[C@@H]5C)cc4)CC3)nn12
12

The measured values listed here are drawn from ChEMBL document CHEMBL4431353.
